Test system: HepG2
Test: Antiproliferative activity against human HepG2 cells after 72 hrs by CCK-8 reagent based assay
Assay type: functional, cell-based
Settings: HepG2, 72 h
METRIC: IC50 (µM)

>>> test_result("Nc1ccccc1NC(=O)c1ccc(COc2ccccc2)cc1")
6.7
>>> test_result("Nc1cc(F)ccc1NC(=O)c1ccc(COc2ccccc2)cc1")
7.02
>>> test_result("Nc1ccccc1NC(=O)/C=C/c1ccc(CN2CCc3ccccc3C2)cc1")
13.5
>>> test_result("CCc1ccc(OCc2ccc(C(=O)Nc3ccccc3N)cc2)cc1")
6.96
>>> test_result("C/C(=N\\O)c1ccc(OCc2ccc(C(=O)NO)cc2)cc1")
7.77
>>> test_result("O=C(/C=C/c1ccc(CN2CCc3ccccc32)cc1)NO")
14.9
>>> test_result("O=C(/C=C/c1ccc(COc2ccccc2)cc1)NO")
8.4

---

Tested on: HepG2
Assay: Antiproliferative activity against human HepG2 cells after 72 hrs by CCK-8 reagent based assay
Type: functional, cell-based
Details: HepG2, 72 h
METRIC: IC50

>>> test_result("Nc1ccccc1NC(=O)c1ccc(COc2ccc(Cl)cc2)cc1")
"> 32 µM"
>>> test_result("CC(C)c1ccc(OCc2ccc(C(=O)Nc3ccccc3N)cc2)cc1")
"> 32 µM"
>>> test_result("Nc1cnccc1NC(=O)/C=C/c1ccc(COc2ccccc2)cc1")
"> 32 µM"

---

System: A549
Assay: Antiproliferative activity against human A549 cells after 72 hrs by CCK-8 reagent based assay
Format: functional, cell-based
Conditions: A549, 72 h
pIC50: −log10 of the molar value.
The label depends only on pIC50: label 1 if it is at least 5, label 0 if it is smaller.

>>> group("Nc1ccccc1NC(=O)c1ccc(COc2ccc(Br)cc2)cc1")
"label 0"
>>> group("O=C(/C=C/c1ccc(COc2ccccc2)cc1)NO")
"label 1"
>>> group("O=C(/C=C/c1ccc(CN2CCc3ccccc32)cc1)NO")
"label 1"
>>> group("Nc1ccccc1NC(=O)c1ccc(COc2ccc([N+](=O)[O-])cc2)cc1")
"label 0"
>>> group("Nc1ccccc1NC(=O)/C=C/c1ccc(COc2ccccc2)cc1")
"label 0"
>>> group("Nc1ccccc1NC(=O)c1ccc(COc2ccc(F)cc2)cc1")
"label 1"
>>> group("Cc1ccc(OCc2ccc(C(=O)Nc3ccccc3N)cc2)cc1")
"label 1"
>>> group("O=C(NO)c1ccc(COc2ccccc2)cc1")
"label 0"

Data provenance is ChEMBL document CHEMBL4020706.
